EXPERIMENTAL SYSTEM: Polyprotein P1234 (Chikungunya virus (strain S27-African prototype) (CHIKV))
TEST: Inhibition of N-terminal 6-His/SUMO-tagged CHIKV 181/25 nsP2 extracted from Escherichia coli Rosetta 2 preincubated for 30 mins followed by ATP addition measured after 1 hr by ADP-Glo assay
pIC50: −log10 of the molar value.
The label depends only on pIC50: 1 if it is at least 5, 0 if it is smaller.

MOLECULE | LABEL
O=C(CCCCl)NCC1CCOC2(CCN(C(=O)C3(c4ccccc4)CCCC3)CC2)C1 (centres undefined) | 1
O=C(N1CCC2(CC1)CC(CN1CCCCS1(=O)=O)CCO2)C1(c2ccccc2F)CCCC1 (centres undefined) | 1
CC(C)C(=O)NCC1CCOC2(CCN(C(=O)C3(c4ccccc4)CCCC3)CC2)C1 (centres undefined) | 0
O=C(N1CCC2(CC1)CC(CNCC(F)(F)F)CCO2)C1(c2ccccc2)CCCC1 (centres undefined) | 0
CS(=O)(=O)NCC1CCOC2(CCN(C(=O)C3(c4cccc(Cl)c4)CCCC3)CC2)C1 (centres undefined) | 0
Cc1cccc(C2(C(=O)N3CCC4(CC3)CC(CNS(=O)(=O)N(C)C)CCO4)CCCC2)c1 (centres undefined) | 0
CN(C)S(=O)(=O)N(C)CC1CCOC2(CCN(C(=O)C3(c4ccccc4)CCCC3)CC2)C1 (centres undefined) | 1

---

EXPERIMENTAL SYSTEM: Polyprotein P1234 (Chikungunya virus (strain S27-African prototype) (CHIKV), UniProt Q8JUX6)
Sequence (Q8JUX6 536-1333 limits assumed): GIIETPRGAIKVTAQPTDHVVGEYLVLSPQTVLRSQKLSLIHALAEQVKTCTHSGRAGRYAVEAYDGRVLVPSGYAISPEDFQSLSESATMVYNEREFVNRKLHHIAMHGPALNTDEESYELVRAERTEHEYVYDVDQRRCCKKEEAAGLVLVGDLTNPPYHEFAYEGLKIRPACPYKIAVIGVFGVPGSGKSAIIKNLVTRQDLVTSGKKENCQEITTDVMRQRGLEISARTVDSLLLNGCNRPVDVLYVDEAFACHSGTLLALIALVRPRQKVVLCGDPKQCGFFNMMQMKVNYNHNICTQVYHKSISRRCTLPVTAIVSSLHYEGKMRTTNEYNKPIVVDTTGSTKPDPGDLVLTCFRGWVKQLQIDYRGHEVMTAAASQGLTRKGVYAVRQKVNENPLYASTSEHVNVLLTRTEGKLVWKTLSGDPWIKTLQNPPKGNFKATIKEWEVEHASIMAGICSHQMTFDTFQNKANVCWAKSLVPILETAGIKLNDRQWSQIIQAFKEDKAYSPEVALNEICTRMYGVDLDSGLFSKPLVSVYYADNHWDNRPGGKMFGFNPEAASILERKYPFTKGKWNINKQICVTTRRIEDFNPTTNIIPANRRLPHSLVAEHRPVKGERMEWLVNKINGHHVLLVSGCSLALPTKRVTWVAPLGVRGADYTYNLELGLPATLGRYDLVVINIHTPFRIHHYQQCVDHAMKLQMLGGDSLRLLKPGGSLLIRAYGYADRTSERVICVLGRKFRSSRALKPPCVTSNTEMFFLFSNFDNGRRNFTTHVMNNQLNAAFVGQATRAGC
TEST: Inhibition of N-terminal 6-His/SUMO-tagged CHIKV 181/25 nsP2 extracted from Escherichia coli Rosetta 2 preincubated for 30 mins followed by ATP addition measured after 1 hr by ADP-Glo assay
pIC50: −log10 of the molar value.
Listing of entries alongside the reported pIC50.
PROPERTY NAME: pIC50

MOLECULE | RESULT
O=C(N1CCC2(CC1)CC(CN1CCCS1(=O)=O)CCO2)C1(c2ccccc2)CCCC1 (stereo not given) | 5.80
CS(=O)(=O)NCC1CCOC2(CCN(C(=O)C3(c4ccccc4)CCCCC3)CC2)C1 (stereo not given) | < 4.40
O=C(NCC1CCOC2(CCN(C(=O)C3(c4ccccc4)CCCC3)CC2)C1)c1ccccn1 (stereo not given) | < 4.40
CC(C)NC(=O)NCC1CCOC2(CCN(C(=O)C3(c4ccccc4)CCCC3)CC2)C1 (stereo not given) | < 4.40
COc1cccc(C(=O)NCC2CCOC3(CCN(C(=O)C4(c5ccccc5)CCCC4)CC3)C2)c1 (stereo not given) | < 4.40

---

TEST: Aqueous solubility of compound in PBS at pH 7.4
Format: physicochemical
Listing of entries alongside the reported solubility kinetic.

COMPOUND | U | QUAL | solubility kinetic
COc1ccc(NC(=O)NCC2CCOC3(CCN(C(=O)C4(c5ccccc5)CCCC4)CC3)C2)cc1 (stereo not given) | µM | = | 10
CS(=O)(=O)N(Cc1ccccc1)CC1CCOC2(CCN(C(=O)C3(c4ccccc4)CCCC3)CC2)C1 (stereo not given) | µM | < | 1
CCCCCC(=O)NCC1CCOC2(CCN(C(=O)C3(c4ccccc4)CCCC3)CC2)C1 (stereo not given) | µM | = | 60
CC(C)(C)NC(=O)NCC1CCOC2(CCN(C(=O)C3(c4ccccc4)CCCC3)CC2)C1 (stereo not given) | µM | = | 170
CC(C)(C(=O)N1CCC2(CC1)CC(CNS(C)(=O)=O)CCO2)c1ccccc1 (stereo not given) | µM | = | 220
